# protocol_description: Solubility ratio of the sickle cell haemoglobin with compound to sickle cell haemoglobin with out compound at 9 mM
# Format: ADME
# test_context: 9000 µM
Each record here notes measured Solubility ratio.

>  <compound>
CCC1=C(c2ccc(OCCCC(=O)O)c(Cl)c2Cl)OC(CC)(C(=O)c2ccc(OCCCC(=O)O)c(Cl)c2Cl)CC1 (stereo not given)

>  <Solubility ratio>
1.039

$$$$
>  <compound>
C=CC(=O)c1ccc(OCC(=O)O)c(Cl)c1Cl

>  <Solubility ratio>
1.095

$$$$
>  <compound>
C=C(CC)C(=O)c1ccc(OCC(=O)O)c(Cl)c1Cl

>  <Solubility ratio>
1.184

$$$$
>  <compound>
CC/C(=C/c1ccc(OCC(=O)O)c(Cl)c1Cl)[N+](=O)[O-]

>  <Solubility ratio>
1.131

$$$$
>  <compound>
C/C(=C/c1ccc(OCC(=O)O)cc1)[N+](=O)[O-]

>  <Solubility ratio>
1.099

$$$$
>  <compound>
C=C(CC)C(=O)c1ccc(OCC(=O)NCC(=O)O)c(Cl)c1Cl

>  <Solubility ratio>
1.327

$$$$
>  <compound>
C=C(CC)C(=O)c1ccc(OCCCCC(=O)O)c(Cl)c1Cl

>  <Solubility ratio>
1.308

$$$$
>  <compound>
C=C(CCC)C(=O)c1ccc(OC2(C(=O)O)CCC2)c(Cl)c1Cl

>  <Solubility ratio>
1.143

$$$$
>  <compound>
C=C(CC)C(=O)c1ccc(OCCCCCC(=O)O)c(Cl)c1Cl

>  <Solubility ratio>
1.164

$$$$
>  <compound>
C=C(CC)C(=O)c1ccc(OC2(C(=O)O)CCC2)c(Cl)c1Cl

>  <Solubility ratio>
1.202

$$$$

###

Each record here notes measured Solubility ratio.
# protocol_description: Solubility ratio of the sickle cell haemoglobin with compound to sickle cell haemoglobin with out compound at 7 mM
# Assay type: ADME
# test_context: 7000 µM

>  <molecule>
C/C(=C/c1ccc(OCC(=O)O)cc1)[N+](=O)[O-]

>  <Solubility ratio>
1.075

$$$$
>  <molecule>
CC/C(=C/c1ccc(OCC(=O)O)c(Cl)c1Cl)[N+](=O)[O-]

>  <Solubility ratio>
1.096

$$$$
>  <molecule>
C=CC(=O)c1ccc(OCC(=O)O)c(Cl)c1Cl

>  <Solubility ratio>
1.067

$$$$
>  <molecule>
C=C(CC)C(=O)c1ccc(OCC(=O)O)c(Cl)c1Cl [ETHACRYNIC ACID]

>  <Solubility ratio>
1.151

$$$$
>  <molecule>
C=C(CC)C(=O)c1c(Cl)cc(Cl)cc1OCC(=O)O

>  <Solubility ratio>
1.103

$$$$
>  <molecule>
C=C(CC)C(=O)c1ccc(OCCCCCC(=O)O)c(Cl)c1Cl

>  <Solubility ratio>
1.125

$$$$
>  <molecule>
CC/C(=C/c1ccc(OCC(=O)O)c(OC)c1)[N+](=O)[O-]

>  <Solubility ratio>
1.159

$$$$
>  <molecule>
C=C(CC)C(=O)c1ccc(OC(C)(C)C(=O)O)c(Cl)c1Cl

>  <Solubility ratio>
1.183

$$$$
>  <molecule>
C=C(CC)C(=O)c1ccc(OCCCC(=O)NCC(=O)O)c(Cl)c1Cl

>  <Solubility ratio>
1.287

$$$$
>  <molecule>
C=C(CC)C(=O)c1ccc(OCCN(CC)CC)c(Cl)c1Cl

>  <Solubility ratio>
1.089

$$$$
>  <molecule>
C=C(CC)C(=O)c1ccc(OCCCCC(=O)O)c(Cl)c1Cl

>  <Solubility ratio>
1.2

$$$$
>  <molecule>
C=C(CCC)C(=O)c1ccc(OCCCC(=O)O)c(Cl)c1Cl

>  <Solubility ratio>
1.155

$$$$
>  <molecule>
C=C(CC)C(=O)c1ccc(OC2(C(=O)O)CCC2)c(Cl)c1Cl

>  <Solubility ratio>
1.147

$$$$
>  <molecule>
C=C(CC)C(=O)c1ccc(OCC(=O)NCC(=O)O)c(Cl)c1Cl

>  <Solubility ratio>
1.222

$$$$
>  <molecule>
CCC1=Cc2cc(OCC(=O)O)c(Cl)c(Cl)c2C1=O

>  <Solubility ratio>
1.103

$$$$
>  <molecule>
C=C(CC)C(=O)c1ccc(OCCCC(=O)O)c(Cl)c1Cl

>  <Solubility ratio>
1.168

$$$$
>  <molecule>
C/C=C(\CC)C(=O)c1ccc(OCC(=O)O)c(Cl)c1Cl

>  <Solubility ratio>
1.062

$$$$
>  <molecule>
C=C(CCC)C(=O)c1ccc(OC2(C(=O)O)CCC2)c(Cl)c1Cl

>  <Solubility ratio>
1.099

$$$$
>  <molecule>
CC/C(=C/c1ccc(C(=O)O)cc1Cl)[N+](=O)[O-]

>  <Solubility ratio>
1.106

$$$$

###

# protocol_description: Solubility ratio for sickle cell haemoglobin in presence and absence of compound
# Format: ADME

>  <compound>
C=C(CC)C(=O)c1ccc(OCCCC(=O)O)c(Cl)c1Cl

>  <Solubility ratio>
1.122

$$$$
>  <compound>
CC1(C2CCCC2)Cc2cc(OCC(=O)O)c(Cl)c(Cl)c2C1=O (stereo not given)

>  <Solubility ratio>
1.01

$$$$
>  <compound>
C/C=C(\CC)C(=O)c1ccc(OCC(=O)O)c(Cl)c1Cl

>  <Solubility ratio>
1.033

$$$$
>  <compound>
CC1(C2CCCC2)Cc2cc(OCCCC(=O)O)c(Cl)c(Cl)c2C1=O (stereo not given)

>  <Solubility ratio>
0.961

$$$$
>  <compound>
CCC1=C(c2ccc(OCCCC(=O)O)c(Cl)c2Cl)OC(CC)(C(=O)c2ccc(OCCCC(=O)O)c(Cl)c2Cl)CC1 (stereo not given)

>  <Solubility ratio>
1.059

$$$$
>  <compound>
CC(C)C(Br)C(=O)c1ccc(OCC(=O)O)c(Cl)c1Cl (stereo not given)

>  <Solubility ratio>
0.966

$$$$
>  <compound>
CC1(c2ccccc2)Cc2cc(OCC(=O)O)c(Cl)c(Cl)c2C1=O (stereo not given)

>  <Solubility ratio>
0.989

$$$$
>  <compound>
C=C(CC)C(=O)c1ccc(OC(C)(C)C(=O)O)c(Cl)c1Cl

>  <Solubility ratio>
1.094

$$$$
>  <compound>
O=C(c1cccs1)c1cc2c(c(Cl)c1Cl)OC(C(=O)O)C2 (stereo not given)

>  <Solubility ratio>
1.076

$$$$
>  <compound>
C=C(CC)C(=O)c1ccc(OCCN(CC)CC)c(Cl)c1Cl

>  <Solubility ratio>
1.077

$$$$

###

# protocol_description: Solubility ratio of the sickle cell haemoglobin with compound to sickle cell haemoglobin with out compound at 10 mM
# Assay type: ADME
# test_context: 10000 µM
assay_readout: Solubility ratio

>  <compound>
CCC(SC)C(=O)c1ccc(OCC(=O)O)c(Cl)c1Cl (stereo not drawn)

>  <assay_readout>
Solubility ratio

>  <reported>
1.073

$$$$
>  <compound>
O=C(c1cccs1)c1cc2c(c(Cl)c1Cl)OC(C(=O)O)C2 (stereo not drawn)

>  <assay_readout>
Solubility ratio

>  <reported>
1.08

$$$$
>  <compound>
CC1(c2ccccc2)Cc2cc(OCC(=O)O)c(Cl)c(Cl)c2C1=O (stereo not drawn)

>  <assay_readout>
Solubility ratio

>  <reported>
1

$$$$
>  <compound>
CC(C)C(Br)C(=O)c1ccc(OCC(=O)O)c(Cl)c1Cl (stereo not drawn)

>  <assay_readout>
Solubility ratio

>  <reported>
0.983

$$$$
>  <compound>
CC1(C2CCCC2)Cc2cc(OCCCC(=O)O)c(Cl)c(Cl)c2C1=O (stereo not drawn)

>  <assay_readout>
Solubility ratio

>  <reported>
1.006

$$$$
>  <compound>
CCC(C)C(=O)c1ccc(OCC(=O)O)c(Cl)c1Cl (stereo not drawn)

>  <assay_readout>
Solubility ratio

>  <reported>
1.088

$$$$
>  <compound>
CCC(CN(C)C)C(=O)c1ccc(OCC(=O)O)c(Cl)c1Cl.Cl (stereo not drawn)

>  <assay_readout>
Solubility ratio

>  <reported>
1.168

$$$$
>  <compound>
CC1(C2CCCC2)Cc2cc(OCC(=O)O)c(Cl)c(Cl)c2C1=O (stereo not drawn)

>  <assay_readout>
Solubility ratio

>  <reported>
1.015

$$$$

###

# protocol_description: Solubility ratio of the sickle cell haemoglobin with compound to sickle cell haemoglobin with out compound at 3 mM
# Type: ADME
# test_context: 3000 µM
assay_readout: Solubility ratio

>  <compound>
C=CC(=O)c1ccc(OCC(=O)O)c(Cl)c1Cl

>  <assay_readout>
Solubility ratio

>  <reported>
1.033

$$$$
>  <compound>
C=C(CC)C(=O)c1ccc(OCC(=O)O)c(Cl)c1Cl [ETHACRYNIC ACID]

>  <assay_readout>
Solubility ratio

>  <reported>
1.07

$$$$
>  <compound>
C=C(CC)C(=O)c1ccc(OCCCC(=O)NCC(=O)O)c(Cl)c1Cl

>  <assay_readout>
Solubility ratio

>  <reported>
1.107

$$$$
>  <compound>
C/C=C(\CC)C(=O)c1ccc(OCC(=O)O)c(Cl)c1Cl

>  <assay_readout>
Solubility ratio

>  <reported>
1.017

$$$$
>  <compound>
C=C(CC)C(=O)c1ccc(OC(C)(C)C(=O)O)c(Cl)c1Cl

>  <assay_readout>
Solubility ratio

>  <reported>
1.05

$$$$
>  <compound>
CCC1=Cc2cc(OCC(=O)O)c(Cl)c(Cl)c2C1=O

>  <assay_readout>
Solubility ratio

>  <reported>
1.074

$$$$
>  <compound>
C=C(CCC)C(=O)c1ccc(OCCCC(=O)O)c(Cl)c1Cl

>  <assay_readout>
Solubility ratio

>  <reported>
1.082

$$$$
>  <compound>
C=C(CC)C(=O)c1ccc(OCCCC(=O)O)c(Cl)c1Cl

>  <assay_readout>
Solubility ratio

>  <reported>
1.084

$$$$
>  <compound>
C=C(CC)C(=O)c1ccc(OCCC(=O)O)c(Cl)c1Cl

>  <assay_readout>
Solubility ratio

>  <reported>
1.112

$$$$
>  <compound>
C=C(CCC)C(=O)c1ccc(OC2(C(=O)O)CCC2)c(Cl)c1Cl

>  <assay_readout>
Solubility ratio

>  <reported>
1.057

$$$$
>  <compound>
C=C(CC)C(=O)c1ccc(OC2(C(=O)O)CCC2)c(Cl)c1Cl

>  <assay_readout>
Solubility ratio

>  <reported>
1.08

$$$$
